Note to self: melting point under 100 °C means Yes, ties and anything higher get No.

{"columns": ["molecule", "qualitative-label"],
 "data": [
  ["CCCCS", "Yes"],
  ["CCCCCCCCCCCCCCCCCC(=O)OCCCCCCCCCCCCCCCC", "Yes"],
  ["OCc1ccccc1", "Yes"],
  ["FC(F)OC(Cl)C(F)(F)F (stereo unspecified)", "Yes"],
  ["C=C1C[C@H]2[C@@H]3CCC4=CC(=O)C=C[C@]4(C)[C@H]3[C@@H](O)C[C@]2(C)[C@@]1(O)C(=O)CO", "No"],
  ["O=C(O)C1c2ccccc2-c2ccccc21", "No"],
  ["C1CC1", "Yes"],
  ["O=C1NC(=O)C([N+](=O)[O-])C(=O)N1", "No"],
  ["CN(C)Cc1cc(C(C)(C)C)c(O)c(C(C)(C)C)c1", "Yes"],
  ["CCNc1nc(Cl)nc(NCC)n1", "No"],
  ["S=c1sccs1", "Yes"],
  ["C=CCN(CC=C)C(=O)C(Cl)Cl", "Yes"],
  ["O=P(OC(Cl)CCCl)(OC(Cl)CCCl)OC(Cl)CCCl (stereo unspecified)", "Yes"],
  ["CCCCCOC(C)=O", "Yes"],
  ["CCCC[P+](CCCC)(CCCC)Cc1ccc(Cl)cc1Cl.[Cl-]", "No"],
  ["CCNC(=O)NC(=O)/C(C#N)=N/OC", "No"],
  ["COc1ccc(C(=O)Cc2c(CCN(C)C)cc3c(c2OC)OCO3)c(C(=O)O)c1OC", "No"],
  ["COc1ccc(C=CC(=O)c2ccccc2)cc1", "Yes"],
  ["O=C(O)Cn1c(=O)sc2cccc(Cl)c21", "No"],
  ["Cc1ccc(S(=O)(=O)O)c(C)c1", "Yes"],
  ["C#CCOc1cc(-n2nc3n(c2=O)CCCC3)c(Cl)cc1Cl", "No"]
]}

---

# melting point annotations

{"columns": ["compound", "melting point (°C)"],
 "data": [
  ["Oc1ccc(-c2ccccc2)cc1Cl", 77],
  ["CCCCCC(=O)OC(=O)CCCCC", -41],
  ["CN(C)c1ccc([N+](=O)[O-])cc1", 164],
  ["CCCCCCCCCCCC(=O)OC", 5.2],
  ["Cc1ccc(N)nc1", 76.5],
  ["CC(=O)c1cccc(C(C)=O)c1", 32],
  ["CCCCCCCCCCCCCCCCCCCCCCCCCC(=O)O", 88.5],
  ["NC(=O)N(CCO)/N=C/c1ccc([N+](=O)[O-])o1", 214],
  ["C[N+]1(CCC(O)(c2ccccc2)c2cccs2)CCOCC1.[I-] (configuration not stated)", 190],
  ["CC(=O)N=C1C=CC(=O)C=C1", 74.5],
  ["CNC(=O)N(C)C", 75.5],
  ["Nc1ccc(S(=O)(=O)c2ccc(N)cc2)cc1", 176],
  ["COC1=C[C@H](C)[C@H]2C[C@H]3OC(O)C[C@H]4C(C)=C(OC)C(=O)C([C@@]34C)[C@@]2(C)C1=O (some centres not stated)", 227],
  ["Cc1ccc(CC(=O)O)cc1", 93],
  ["COc1cc(Cl)c(Cl)c(Cl)c1Cl", 84],
  ["Brc1ccccc1", -30.6],
  ["CCOC(=O)COc1cccc2ccccc12", 56.5]
]}
